- assay-summary: drug combination growth inhibition, ovarian cancer – cell-based, oncology-focused library, rucaparib conditional, profiling panel (AID 1508598)
- condition-description: patient-derived ovarian cancer cells, CellTiter-Glo viability, 144 h; at 5 µM; OCI-P5x cells; with rucaparib 20 µM; 100% = cells with rucaparib alone
Activity calls are given as the source filed them.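 The calls were made as follows: active = normalized viability below 100% at a tested concentration; inactive = the rest.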
A correct response names exactly one class from active, inactive

Q) // outcome(item) with item = C=CS(=O)(=O)NC1CCN(C(=O)CNc2cc(I)c(Cl)cc2OC)CC1
A) active

Q) // outcome(item) with item = CC(=O)O[C@]12CO[C@@H]1C[C@H](O)[C@]1(C)C(=O)[C@H](O)C3=C(C)[C@H](OC(=O)[C@H](O)[C@@H](NC(=O)OC(C)(C)C)c4ccccc4)C[C@](O)([C@H](OC(=O)c4ccccc4)C21)C3(C)C (some centres undefined)
A) active

Q) // outcome(item) with item = COc1cccc2c1C(=O)c1c(O)c3c(c(O)c1C2=O)C[C@@](O)(C(C)=O)C[C@H]3O[C@H]1C[C@H](N)[C@H](O)[C@H](C)O1
A) active

Q) // outcome(item) with item = CCOc1ccc(Cc2cc([C@@H]3O[C@H](CO)[C@@H](O)[C@H](O)[C@@H]3O)ccc2Cl)cc1
A) inactive

Q) // outcome(item) with item = COc1cccc2c1C(=O)c1c(O)c3c(c(O)c1C2=O)C[C@@](O)(C(=O)CO)C[C@H]3O[C@H]1C[C@H](N)[C@@H](O)[C@H](C)O1
A) active

Q) // outcome(item) with item = CC1=C(/C=C/C(C)=C\C=C\C(C)=C/C(=O)O)C(C)(C)CCC1
A) active

Q) // outcome(item) with item = CCOC(=O)NCCCC(=O)NCCc1ccccc1
A) active

Q) // outcome(item) with item = Cc1cc2c(C(=O)NC[C@H](C)c3ccccc3)c(O)c(O)cc2c(O)c1-c1c(C)cc2c(C(=O)NC[C@H](C)c3ccccc3)c(O)c(O)cc2c1O
A) active

Q) // outcome(item) with item = COc1cc(=C2C=c3ccccc3=N2)[nH]/c1=C\c1[nH]c(C)cc1C
A) active

Q) // outcome(item) with item = Cc1[nH]c(C=C2C(=O)Nc3ccc(S(=O)(=O)N(C)c4cccc(Cl)c4)cc32)c(C)c1C(=O)N1CCN(C)CC1
A) inactive

Q) // outcome(item) with item = CC(=O)OCC(=O)[C@]1(O)[C@H](C)C[C@H]2[C@@H]3CCC4=CC(=O)C=C[C@]4(C)[C@]3(F)[C@H](O)C[C@@]21C
A) active

Q) // outcome(item) with item = C[C@]12C=CC(=O)C=C1CC[C@@H]1[C@H]2C(=O)C[C@@]2(C)[C@H]1CC[C@@]2(O)C(=O)CO
A) active

Q) // outcome(item) with item = CC[C@]1(O)C[C@@H]2CN(CCc3c([nH]c4ccccc34)[C@@](C(=O)OC)(c3cc4c(cc3OC)N(C=O)[C@H]3[C@@](O)(C(=O)OC)[C@H](OC(C)=O)[C@]5(CC)C=CCN6CC[C@@]43[C@@H]65)C2)C1
A) active

Q) // outcome(item) with item = CC(=O)O[C@@]1(C(C)=O)CC[C@H]2[C@@H]3C[C@H](C)C4=CC(=O)CC[C@]4(C)[C@@H]3CC[C@@]21C
A) active

====

Field: inhibition. Provide a value for each of the compounds that follow.
- assay-summary: growth inhibition, single agent or in combination, cell-based, chromothripsis tumors, cisplatin or BGB combos (AID 1671449);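 also: cells exposed for 96 hours; 0% = vehicle DMSO and 100% = killing by high DMSO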
- condition-description: LFS_MB_P medulloblastoma cells, measured here: combination with BGB IC40, at 0.005 µM

Just so you know, measured inhibition for Nc1nc(NC2CC2)cc(-c2cccc(Cl)c2Cl)n1 came out at -13.3%

Just so you know, measured inhibition for O=C(CCCCCCC(=O)NO)NO came out at -7.94%

Just so you know, measured inhibition for NC(=S)NN=Cc1ncccc1N came out at -23%

Just so you know, measured inhibition for CN(C)C(=S)NN=C(c1ccccn1)c1ccccn1 came out at 60.3%

Just so you know, measured inhibition for CC(C)c1ccc(-c2cc(=O)c3ccccc3o2)cc1 came out at -27.4%

Just so you know, measured inhibition for CC1CN(c2c(F)c(N)c3c(=O)c(C(=O)O)cn(C4CC4)c3c2F)CC(C)N1 (stereo unspecified) came out at -31.5%

Just so you know, measured inhibition for COc1ccc(-c2nc(-c3cc(C(F)(F)F)cc(C(F)(F)F)c3)n(Cc3ccc(C(N)=O)cc3)c2-c2ccc(OC)cc2)cc1 came out at -58.7%

Just so you know, measured inhibition for O=c1ccn(C2CC(O)C(CO)O2)c(=O)[nH]1 (stereo unspecified) came out at -27.4%

Just so you know, measured inhibition for COc1cccc2c1C(=O)c1c(O)c3c(c(O)c1C2=O)CC(O)(C(=O)CO)CC3OC1CC(N)C(OC2CCCCO2)C(C)O1 (stereo unspecified) came out at -11.4%

Just so you know, measured inhibition for O=C(CCSc1nc2ccccc2c(=O)[nH]1)NC1CCC(c2nnc(-c3ccccc3)o2)CC1 (stereo unspecified) came out at -25.3%

Just so you know, measured inhibition for C=C1CCC(O)CC1=CC=C1CCCC2(C)C1CCC2C(C)C=CC(C)C(C)C (stereo unspecified) came out at -11.2%

====

- assay-summary: viability loss with induced miR-34 in A549 – imaging, A549 dox-inducible miR-34, nuclei and caspase counts, primary screen (AID 1347080)
- condition-description: A549 miR-34 inducible, Hoechst nuclei count, 48 h; measured here: total cells with miR-34 induction; stronger effect = lower value
Mark rule met only when cell count stays strictly below 8000. Values equal to the cut-off are rule not met.

Q) Criterion: cell count strictly below 8000. Is it met by CCn1ccnc1CN(C)C(=O)c1cc(-c2cnc(N)nc2)nc2c(C)cccc12 ?
A) rule not met

Q) Criterion: cell count strictly below 8000. Is it met by Cc1cc(C)c(C=C2C(=O)Nc3ccccc32)[nH]1 ?
A) rule met

Q) Criterion: cell count strictly below 8000. Is it met by O=C1c2c(O)cc(O)cc2OC(c2cc(O)c(O)c(O)c2)C1O (stereo not given) ?
A) rule not met

Q) Criterion: cell count strictly below 8000. Is it met by Cn1nnnc1SCC1=C(C(=O)O)N2C(=O)[C@@H](NC(=O)[C@H](O)c3ccccc3)[C@H]2SC1 ?
A) rule not met

====

- assay-summary: drug combination toxicity in non-malignant astrocytes – cell-based, BGB or cisplatin IC20 combos, cytotoxicity control for chromothriptic childhood tumor combination screen (AID 1671460);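 also: cells exposed to compounds for 96 hours before viability readout; 0% = vehicle and 100% = killing control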
- condition-description: Human astrocytes, viability inhibition, drug combinations; measured here: combo with cisplatin IC20; at 0.5 µM; stronger effect = higher value
measured-attribute: inhibition
Note: a bare number is incomplete; add the unit.

Just so you know, measured inhibition for Cc1ccc([N+](=O)[O-])cc1S(=O)(=O)N(C)/N=C\c1cnc2ccc(Br)cn12 came out at 82.6%

Just so you know, measured inhibition for CC1OC(n2cc(F)c(=O)[nH]c2=O)C(O)C1O (stereo unspecified) came out at -13.1%

Just so you know, measured inhibition for Nc1ncn(C2OC(CO)C(O)C2O)c(=O)n1 (stereo unspecified) came out at 11.2%

Just so you know, measured inhibition for CC(=O)C1(O)Cc2c(O)c3c(c(O)c2C(OC2CC(N)C(O)C(C)O2)C1)C(=O)c1ccccc1C3=O (stereo unspecified) came out at 91.6%

Just so you know, measured inhibition for CCC(C)C(=O)OC1CC(C)C=C2C=CC(C)C(CCC3CC(O)CC(=O)O3)C21 (stereo unspecified) came out at -11.2%

Just so you know, measured inhibition for C[C@H](NC(=O)c1ccccc1N=Cc1c(O)ccc2ccccc12)c1ccccc1 came out at -2.44%

Just so you know, measured inhibition for COc1nc(N)nc2c1ncn2[C@@H]1O[C@H](CO)[C@@H](O)[C@H]1O came out at -14.9%

Just so you know, measured inhibition for O=C(CCCCCCC(=O)NO)NO came out at -13%

Just so you know, measured inhibition for CC1OC(CC(=O)O)CC2=C1C(=O)c1c(O)cccc1C2=O (stereo unspecified) came out at 101%

Just so you know, measured inhibition for NC(=O)c1ncn(C2OC(CO)C(O)C2O)c1O (stereo unspecified) came out at -13.5%

Just so you know, measured inhibition for C[C@@H]1COCCN1c1cc(C2(S(C)(=O)=O)CC2)nc(-c2cccc3[nH]ccc23)n1 came out at 30.8%

Just so you know, measured inhibition for Nc1ccccc1NC(=O)c1cnccn1 came out at 8.86%

Just so you know, measured inhibition for Cn1cnc2[nH]c(=O)[nH]c(=O)c21 came out at 4.38%

Just so you know, measured inhibition for Cc1cc(C)c(Nc2ccnc(Nc3ccc(C#N)cc3)n2)c(C)c1 came out at 9.36%

Just so you know, measured inhibition for Cc1cc(C)cc(C(=O)NOCCCCCC(=O)NO)c1 came out at 25.6%

Just so you know, measured inhibition for O=C(CCSc1nc2ccccc2c(=O)[nH]1)NC1CCC(c2nnc(-c3ccccc3)o2)CC1 (stereo unspecified) came out at 43.3%

Just so you know, measured inhibition for COc1cccc2c1C(=O)c1c(O)c3c(c(O)c1C2=O)CC(O)(C(C)=O)CC3OC1CC(N)C(O)C(C)O1 (stereo unspecified) came out at 93.9%

Just so you know, measured inhibition for COc1cccc2c1C(=O)c1c(O)c3c(c(O)c1C2=O)CC(O)(C(=O)CO)CC3OC1CC(N)C(OC2CCCCO2)C(C)O1 (stereo unspecified) came out at 39.2%

Just so you know, measured inhibition for CC1CN(c2c(F)c(N)c3c(=O)c(C(=O)O)cn(C4CC4)c3c2F)CC(C)N1 (stereo unspecified) came out at -10.7%

Just so you know, measured inhibition for CC(C)c1ccc(-c2cc(=O)c3ccccc3o2)cc1 came out at -6.48%

Just so you know, measured inhibition for C[n+]1ccc(-c2c3nc(c(-c4cc[n+](C)cc4)c4ccc([nH]4)c(-c4cc[n+](C)cc4)c4nc(c(-c5cc[n+](C)cc5)c5ccc2[nH]5)C=C4)C=C3)cc1 came out at 3.89%
